Source: PubChem BioAssay AID602441

assay: qHTS for antagonists of the Thyroid Stimulation Hormone Receptor: Hit Validation in Parental Cell Line; settings: parental HEK293 cells lacking TSHR, counter-screen; series mostly up to 56.9 µM
Hit rate of the full screen: of about 1,300 compounds, fewer than 10 were called active. About 9% were inconclusive and are not listed. Not all results are given here.
measure: outcome

| compound | reported |
| --- | --- |
| COc1ccc(-c2nc(NC(=O)c3cc(C(C)(C)C)nn3C)sc2C)cc1 | inactive |
| O=C(Nc1ccc(N=Nc2ccccc2)cc1)c1ccccc1Cl | inactive |
| Cc1ccc(NC(=O)C(C)c2ccc(-c3ccccc3)c(F)c2)cc1 (stereo not given) | inactive |
| COc1ccccc1NS(=O)(=O)c1cc(NC(=O)c2ccc3c(c2)OCCO3)ccc1C | inactive |
| O=S(=O)(NCc1csc(-c2ccccc2)n1)c1ccc(Cl)s1 | inactive |

Return reported outcome; argument: "O=S(=O)(c1ccc(Cl)cc1)N1CCN(c2ncnc3sccc23)CC1"
inactive

Return reported outcome; argument: "Cc1ccc(OCc2cc(C(=O)NC3CCCCC3)no2)cn1"
inactive

Return reported outcome; argument: "Cc1ccc(NC(=O)c2ccccc2NS(=O)(=O)c2ccc(F)cc2)cc1S(=O)(=O)N1CCCCC1"
inactive

Return reported outcome; argument: "O=C(Cn1cnc2ccccc21)Nc1ccc2c(c1)OCCCO2"
inactive

Return reported outcome; argument: Cc1cccc(N(C(=O)c2nsc(Cl)c2Cl)C(C(=O)NC2CCCC2)c2ccc(O)cc2)c1C (stereo not given)
inactive

====

assay: qHTS for antagonists of the Thyroid Stimulation Hormone Receptor: Hit Validation in Parental Cell Line; conditions: parental HEK293 cells lacking TSHR, counter-screen; series mostly up to 56.9 µM
Hit rate of the full screen: of about 1,300 compounds, fewer than 10 were called active. Not shown: some 9% with an inconclusive outcome. The call rests on the fitted dose curve; in most records, active means well fitted curve in the direction sought with a large enough effect; inconclusive means small, poorly fitted or top-dose-only effect, or another doubt; inactive means no such curve, though single readings can be large or run the other way. A selection follows.
Field 'call' accepts YES (active), NO (inactive)

| compound | classification |
| --- | --- |
| Cc1nn(CCCC(=O)Nc2cc(Oc3ccccc3)cc([N+](=O)[O-])c2)c(C)c1[N+](=O)[O-] | NO |
| COCC1CCCCN1C(=O)C1CCN(c2nc(-c3ccccc3)nc3c2CCC3)CC1 (stereo unspecified) | NO |
| COc1ccc(S(=O)(=O)n2cnc3ccccc32)c(C)c1 | NO |
| CCN(CC)S(=O)(=O)c1cccc(NC(=O)CNc2cccc(S(=O)(=O)N3CCOCC3)c2)c1 | NO |
| CCOC(=O)c1c(-c2ccccc2)csc1NC(=O)CSc1nnnn1C | NO |

Look up the recorded call for "N#Cc1ccc(CN2CCN(C(=O)c3ccc(S(=O)(=O)N4CCCCCC4)cc3)CC2)cc1" in this test.
NO

Look up the recorded call for "CN(c1ccc(OCC(=O)Nc2nc3ccccc3s2)cc1)S(=O)(=O)c1ccccc1" in this test.
NO

Look up the recorded call for "CN(C)c1ccc(/C=C/c2cc[n+](C)cc2)cc1" in this test.
NO

Look up the recorded call for "O=[N+]([O-])c1cc(Br)c(O)c(/C=N/Nc2nnnn2-c2cccc3ccccc23)c1" in this test.
NO

Look up the recorded call for "COc1ccc(-c2c(C(F)(F)F)[nH]n3c(=O)cc(-c4ccccc4)nc23)cc1" in this test.
NO

Look up the recorded call for "Cc1nn(-c2nc3ccccc3s2)c(N)c1-c1ccccc1" in this test.
NO

Look up the recorded call for "CC[n+]1ccc(/C=C/c2ccc(N(C)C)cc2)c2ccccc21" in this test.
YES

Look up the recorded call for "CCN(CC)c1ccc2nc3ccccc3[n+](CC)c2c1" in this test.
YES

Look up the recorded call for "O=C(COC(=O)c1ccccc1SCC(=O)N1CCCC1)Nc1ccccc1" in this test.
NO

Look up the recorded call for "Cc1cc(=O)[nH]c(SCC(=O)Nc2ccc(Br)cc2)c1C#N" in this test.
NO

Look up the recorded call for O=C(NCC1CCCN(C(=O)c2cccc(C(F)(F)F)c2)C1)c1ccc(F)cc1 (stereo unspecified) in this test.
NO

Look up the recorded call for "COc1ccc(NC(=O)c2ccc(-c3ccccc3)cc2)cc1NS(=O)(=O)c1ccc(F)cc1" in this test.
NO

Look up the recorded call for "Cc1sc2nc(-c3ccccn3)[nH]c(=O)c2c1-c1ccccc1" in this test.
NO

Look up the recorded call for "COc1ccc(-c2csc(/C(C#N)=C\c3ccc(O)c([N+](=O)[O-])c3)n2)cc1OC" in this test.
NO

Look up the recorded call for "CCCCOc1ccc(/C=N/Nc2cc(N3CCOCC3)nc(C)n2)cc1" in this test.
NO

Look up the recorded call for "COc1ccc(-c2csc3ncnc(N4CCN(S(=O)(=O)c5cccs5)CC4)c23)cc1" in this test.
NO
